Reference source: ChEMBL document CHEMBL1629431

Tested on: T47D
Experiment: Growth inhibition of human T47D cells at 10 uM after 48 hrs by coulter counter method
Assay type: functional
Conditions: read-out: GI
observable: inhibition of growth at 10 µM

• O=C(CSc1nc2ccccc2c(=O)n1-c1ccc(Cl)cc1)c1ccc(Cl)cc1 = 30%
• CCn1c(SC)nc2ccccc2c1=O = 30%
• O=C1Nc2ccc(CNc3ccccn3)cc2C(c2ccc(Cl)cc2)N1 (stereo not given) = 43.9%
• O=c1c2ccccc2nc(-n2ccnc2)n1-c1ccc(Cl)cc1 = 39%
• COc1ccc(-c2nnc(Nc3nc4ccccc4c(=O)n3-c3ccccc3)s2)cc1 = 30%

* * *

Listed next: entries and their corresponding inhibition of growth at 10 µM.
Test system: CAKI-1
Assay: Growth inhibition of human Caki1 cells at 10 uM after 48 hrs by coulter counter method
Type: functional
Conditions: CAKI-1, 48 h, read-out: GI
observable: inhibition of growth at 10 µM (%)

* COc1ccc(-n2c(-n3ccnc3)nc3ccccc3c2=O)cc1 | 30
* COc1ccc(-n2c(SC)nc3ccccc3c2=O)cc1 | 30
* COc1ccc(C2NC(=O)Nc3ccc(CNc4ccccn4)cc32)cc1 (configuration not stated) | 30
* O=C(CSc1nc2ccccc2c(=O)n1-c1ccc(Cl)cc1)c1ccc(Cl)cc1 | 30
* CCn1c(-n2ccnc2)nc2ccccc2c1=O | 46.3
* O=c1c2ccccc2nc(-n2ccnc2)n1-c1ccc(Cl)cc1 | 30
* CSc1nc2ccccc2c(=O)n1-c1ccc(Cl)cc1 | 30
* O=C1Nc2ccc(C(=O)Nc3ccccn3)cc2C(c2ccc(Cl)cc2)N1 (configuration not stated) | 30
* NS(=O)(=O)c1ccc(Nc2nc3ccccc3c(=O)n2-c2ccc(Cl)cc2)cc1 | 30
* CCn1c(SCC(=O)c2ccc(OC)cc2)nc2ccccc2c1=O | 30
* COc1ccc(-n2c(Nc3ccc(S(N)(=O)=O)cc3)nc3ccccc3c2=O)cc1 | 30
* CCn1c(SC)nc2ccccc2c1=O | 42.9

* * *

Listed next: entries and their corresponding inhibition of growth at 10 µM.
Tested on: T47D
Assay: Growth inhibition of human T47D cells at 10 uM after 48 hrs by coulter counter method
Format: functional
Conditions: read-out: GI
observable: inhibition of growth at 10 µM (%)

• NS(=O)(=O)c1ccc(Nc2nc3ccccc3c(=O)n2-c2ccc(Cl)cc2)cc1 = 30
• COc1ccc(C2NC(=O)Nc3ccc(S(=O)(=O)Nc4ccccn4)cc32)cc1 (stereo unspecified) = 43.9
• COc1ccc(-n2c(Nc3ccc(S(N)(=O)=O)cc3)nc3ccccc3c2=O)cc1 = 30
• CCn1c(-n2ccnc2)nc2ccccc2c1=O = 30
• CSc1nc2ccccc2c(=O)n1-c1ccc(Cl)cc1 = 47
• COc1ccc(C2NC(=O)Nc3ccc(C(=O)Nc4ccccn4)cc32)cc1 (stereo unspecified) = 37.6
